# Test system: NCI-H322M lung
# ASSAY_NOTES: NCI-60 one-dose screen, 48 h
# EXPERIMENTAL_CONDITIONS: 10 µM
Compounds without any hit were thinned out: in the full panel of roughly 83,000, 20% have a hit. Active and inactive are the calls of the source. Rule for the calls: active = growth percent below 10; inactive = the rest.
Classes used: true (1) for active, false (0) for inactive

* O=C(N/N=C/c1cc2ccccc2c2ccccc12)c1cc(O)c(O)c(O)c1 | false (0)
* O=C(Nc1ccc(Cl)cc1)N1NC(c2ccc(Cl)cc2)C=C1c1ccccc1 (centres undefined) | false (0)
* COc1cc(/C=C2\Oc3cc(OCC(=O)c4ccccc4)ccc3C2=O)cc(OC)c1OC | false (0)
* C[N+](C)(C)c1ncnc2nc[nH]c12 | false (0)
* C(CCCC1=NCCO1)CCCC1=NCCO1 | false (0)
* Clc1ccc(Nc2ccnc(NCCNc3ccnc4cc(Cl)ccc34)n2)cc1 | false (0)
* CN(C)CCN1C(=O)c2cccc3cc(N)cc(c23)C1=O | false (0)
* CSc1nc(=O)n(Cc2ccc(Cl)cc2)c(=O)[nH]1 | false (0)
* C=C(Cl)[C@@](Cl)(CBr)CC[C@@H](Br)C(C)(C)Cl | true (1)
* COC(=O)c1ccc(=O)oc1 | false (0)
* COc1cc(Nc2ccnc(NCCCNc3ccnc4cc(Cl)ccc34)n2)cc(OC)c1 | false (0)
* CC(=O)OCc1cc(-c2nc3ccccc3[nH]c2=O)nn1-c1ccc(Cl)cc1 | false (0)
* COc1cccc(NC(=O)c2sc3nc4c(cc3c2N)C(O)CCC4)c1 (centres undefined) | false (0)
* CC/C(C)=C(\C)C(=O)O | false (0)
* Nc1ccc2cc(S(=O)(=O)O)cc(O)c2c1N=Nc1ccc(F)cc1 | false (0)
* CC(=O)c1cc(Cl)ccc1O | false (0)
* COC(=O)C1=NNC(=S)N(c2cc(C)[nH]n2)C(=O)C1 | false (0)
* Cc1ccc(C(=O)N2C/C(=C/c3ccccc3)C(=O)/C(=C/c3ccccc3)C2)cc1 | false (0)
* COc1ccc2c(c1)nc(N)c1c3cccnc3cn21 | false (0)
* CCN(CC)CCOc1nc2cc(OC)c(OC)cc2c2c1-c1ccc(OC)cc1C2=O | false (0)
* CC1CN(Cc2ccccc2)C(=O)NC1=O (centres undefined) | false (0)
* O=C(CNC(=O)OCc1ccccc1)NCC(=O)Oc1ccc([N+](=O)[O-])cc1 | false (0)
* O=C1C(=O)c2ccccc2C(O)=C1CCCc1ccc(C2CCCCCC2)cc1 | false (0)
* COc1cc(-c2cc(/C=C/C(=O)c3ccc(N)cc3)[nH]n2)cc(OC)c1OC | false (0)

====

# System: KM12 colon
# ASSAY_NOTES: NCI-60 one-dose screen, 48 h
# EXPERIMENTAL_CONDITIONS: 10 µM
Compounds without any hit were thinned out: in the full panel of roughly 83,000, 20% have a hit. Activity calls are given as the source filed them. Rule for the calls: active = growth percent below 10; inactive = the rest.
Outcome codes: active, inactive

* O=C(O)CC(Cl)C(Cl)CC(=O)O (stereo not given) | inactive
* NC(=O)SCC(=O)Nc1ccc(S(N)(=O)=O)cc1 | inactive
* Fc1ccc(-c2nnc(-c3c(-c4ccc(F)cc4)nc4ccccn34)o2)cc1 | inactive
* CCN(CC)CCOc1nc2cc(OC)c(OC)cc2c2c1-c1ccc(OC)cc1C2=O | inactive
* COc1cc(OC)cc(-c2cncn2-c2ccc(-c3nc4cc(OC)cc(OC)c4s3)cc2)c1 | inactive
* O=[P@@]1(c2ccccc2)O[C@H](COCc2ccccc2)[C@@H](OCc2ccccc2)[C@H](OCc2ccccc2)[C@H]1O | inactive
* CC(=O)c1cc(Br)ccc1O | inactive
* COc1ccccc1CNCCCN1C(=O)c2ccc3c4c(ccc(c24)C1=O)C(=O)N(CCCN)C3=O | active
* CCN(CCCCCCN1CC(=O)N(CCCCCCN(CC)Cc2ccccc2OC)CC1=O)Cc1ccccc1OC | inactive
* C=C(C(=O)c1ccccc1)C(NC(C)(C)C)c1ccccc1 (stereo not given) | inactive
